target: 1-deoxy-D-xylulose 5-phosphate reductoisomerase (Escherichia coli); assay: Inhibition of recombinant Escherichia coli IspC expressed in Escherichia coli M15 using 1-deoxy-D-xylulose 5-phosphate as substrate by photometric assay
Sequence (W8T2T2 whole entry): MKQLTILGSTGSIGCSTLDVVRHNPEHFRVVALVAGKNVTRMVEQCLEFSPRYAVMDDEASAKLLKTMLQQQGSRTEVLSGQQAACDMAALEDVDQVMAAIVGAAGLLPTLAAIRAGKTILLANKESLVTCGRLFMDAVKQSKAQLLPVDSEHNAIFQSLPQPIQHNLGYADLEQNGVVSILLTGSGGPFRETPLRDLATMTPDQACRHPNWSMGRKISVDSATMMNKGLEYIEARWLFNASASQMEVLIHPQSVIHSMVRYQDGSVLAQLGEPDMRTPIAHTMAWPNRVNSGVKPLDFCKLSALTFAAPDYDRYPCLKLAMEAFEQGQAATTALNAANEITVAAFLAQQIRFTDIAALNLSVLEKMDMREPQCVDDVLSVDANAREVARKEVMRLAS
measured-endpoint: log10 IC50 (log10 of the value in µM)
Remember, log10 of IC50, in µM.

compound	measured-endpoint	value-measured
Cc1ccc(C(P(=O)(O)O)S(=O)(=O)CC(=O)NO)cc1 (stereo unspecified)	log10 IC50	1.81
CN(O)C(=O)CS(=O)(=O)C(c1cccc2ccccc12)P(=O)(O)O (stereo unspecified)	log10 IC50	1.18
COc1cc(OC)cc(C(P(=O)(O)O)S(=O)(=O)CC(=O)N(C)O)c1 (stereo unspecified)	log10 IC50	1.90
CN(O)C(=O)CS(=O)(=O)C(c1ccccc1)P(=O)(O)O (stereo unspecified)	log10 IC50	1.56
CN(O)C(=O)CS(=O)(=O)C(c1ccc(Cl)c(Cl)c1)P(=O)(O)O (stereo unspecified)	log10 IC50	1.04

Asked: API: value(readout=log10 IC50, system=1-deoxy-D-xylulose 5-phosphate reductoisomerase (Escherichia coli)) for record O=C(CSC(c1cc(F)cc(F)c1)P(=O)(O)O)NO (racemic)
Given back: -1.89
